Catalogue of IC50 readings, one per entry.
test system: LNCaP cells; assay: LNCaP cell viability (PrestoBlue); assay type: cell-based; settings: Homo sapiens, 96 hours, 0-25 μM, read-out: IC50 LNCaP cell proliferation / viability
measure: IC50

                                   compound  tested_target  value_observed
0  O=[N+]([O-])c1ccc(Nc2ccccc2-c2ccccc2)c2nonc12 [Compound 10074-G5, reference compound]    LNCaP cells          8.7 µM
1  FC(F)(F)c1cc(NC(=S)NCc2ccccc2)cc(C(F)(F)F)c1    LNCaP cells          2.5 µM
2  CCc1ccc(/C=C2\SC(=S)NC2=O)cc1 [Compound 10058-F4, reference compound]    LNCaP cells         18.3 µM
3         O=C1NC(=S)S/C1=C\c1ccccc1C(F)(F)F    LNCaP cells         11.1 µM
